target: human adenosine-A2A receptors (Homo sapiens); construct: expressed in transfected cells; host or cells: HEK-293 cells; experiment: In vitro affinity for human adenosine-A2A receptors (radioligand [3H]CGS 21680); format: binding; settings: human recombinant receptors expressed in HEK-293 cells, read-out: Adenosine receptor affinity (binding) A2A pKi (converted)
Sequence (P29274 whole entry): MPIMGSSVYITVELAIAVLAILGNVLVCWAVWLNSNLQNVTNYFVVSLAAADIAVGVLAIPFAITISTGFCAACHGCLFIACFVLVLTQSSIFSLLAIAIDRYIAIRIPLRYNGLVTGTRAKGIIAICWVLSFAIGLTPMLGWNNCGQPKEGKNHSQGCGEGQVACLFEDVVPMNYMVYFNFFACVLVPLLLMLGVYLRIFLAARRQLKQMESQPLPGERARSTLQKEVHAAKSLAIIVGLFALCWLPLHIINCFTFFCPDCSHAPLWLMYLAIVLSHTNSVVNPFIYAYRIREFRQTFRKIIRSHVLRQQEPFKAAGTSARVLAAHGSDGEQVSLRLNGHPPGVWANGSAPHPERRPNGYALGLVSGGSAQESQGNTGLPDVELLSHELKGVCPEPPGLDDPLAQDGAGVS
This section presents compounds with their documented Ki values.
Quick note: give the figure in µM, leave out the unit.

# example entries with known answers
| compound | Ki (µM) |
| --- | --- |
| OC[C@H]1O[C@@H](n2cnc3c(C(F)(F)F)nc(NCc4ccccc4)nc32)[C@H](O)[C@@H]1O [Compound 8] | 12.6 |
| OC[C@H]1O[C@@H](n2cnc3c(C(F)(F)F)nc(NCCc4ccc(O)cc4)nc32)[C@H](O)[C@@H]1O [Compound 27] | 3.16 |
| OC[C@H]1O[C@@H](n2cnc3c(C(F)(F)F)nc(OCCc4ccccc4)nc32)[C@H](O)[C@@H]1O [Compound 30] | 3.16 |

Query :: Lookup: Ki / human adenosine-A2A receptors (Homo sapiens) / Cn1c(N2CCCCC2)nc2c(C(F)(F)F)nc(NCCc3ccccc3)nc21 [Compound 16]
Result :: 15.8

* * *

biological target: human adenosine-A1 receptors (Homo sapiens, UniProt P30542); construct: expressed in transfected cells; host or cells: CHO cells; assay: In vitro affinity for human adenosine-A1 receptors (radioligand [3H]DPCPX); assay type: binding; conditions: human recombinant receptors expressed in CHO cells, read-out: Adenosine receptor affinity (binding) A1 pKi (converted)
Sequence (P30542 whole entry): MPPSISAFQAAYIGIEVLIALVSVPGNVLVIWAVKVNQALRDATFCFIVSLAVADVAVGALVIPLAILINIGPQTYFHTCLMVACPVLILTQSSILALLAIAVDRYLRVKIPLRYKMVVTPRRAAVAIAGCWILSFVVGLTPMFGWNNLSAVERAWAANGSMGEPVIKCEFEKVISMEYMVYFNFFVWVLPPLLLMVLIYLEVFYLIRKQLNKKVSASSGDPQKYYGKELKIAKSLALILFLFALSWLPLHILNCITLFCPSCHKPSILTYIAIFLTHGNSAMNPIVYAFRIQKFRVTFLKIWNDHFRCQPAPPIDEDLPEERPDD
Entries and their Ki
Report only the number, with the unit µM understood.

Check out these entries, answers already filled in.
| compound | Ki [µM] |
| --- | --- |
| CC(C)(C)OC(=O)OCn1cnc2c(C(F)(F)F)nc(NCCc3ccccc3)nc21 [Compound 28] | 2.51 |
| FC(F)(F)c1nc(NCc2ccccc2)nc2nc[nH]c12 [Compound 6, 6-trifluoromethyl-2-benzylamino purine] | 3.98 |

Turning to the following compound.
Query :: So what does the record say about Ki for OC[C@H]1O[C@@H](n2cnc3c(C(F)(F)F)nc(NCCc4ccc(O)cc4)nc32)[C@H](O)[C@@H]1O [Compound 27] ?
Result :: 5.01

* * *

biological target: UniProt P0DMS8; assay: In vitro functional activity on human adenosine A3 receptors using an Aequorin-based assay; assay type: cell-based; parameters: A. et al. (Acc. Number GenBank: L22607); host or cells: CHO-K1 cells stably expressing mitochondrially targeted aequorin and Galpha16; details: hA3-Aequorin CHO-K1 cells, antagonist mode, N6-benzyl-NECA as the agonist; read-out: Functional activity A3 antagonism pA2 (converted)
Classes are defined on Kb with ranges class 1 (below 0.2 µM), class 2 (0.2 µM to below 2 µM), class 3 (2 µM or more)

Some solved entries appear below for comparison.
| smiles-string | classification |
| --- | --- |
| FC(F)(F)c1nc(NCCc2ccccc2)nc2nc[nH]c12 | class 1 |
| Cn1cnc2c(C(F)(F)F)nc(NCc3ccccc3)nc21 | class 2 |
| Cn1cnc2c(C(F)(F)F)nc(NCCc3ccccc3)nc21 | class 3 |

Query :: Classify this molecule: CC(C)(C)OC(=O)OCn1cnc2c(C(F)(F)F)nc(NCc3ccccc3)nc21
Result :: class 3

* * *

Measured Ki, listed per entry.
Target: human adenosine-A2A receptors (Homo sapiens)
Construct: expressed in transfected cells; host or cells: HEK-293 cells
Assay: In vitro affinity for human adenosine-A2A receptors (radioligand [3H]CGS 21680)
Type: binding
Conditions: human recombinant receptors expressed in HEK-293 cells, read-out: Adenosine receptor affinity (binding) A2A pKi (converted)
Procedure: Affinity of the compounds for human adenosine-A2A receptors was determined using the receptor binding assay described by D. R. Luthin et al., (Mol. Pharmacol., 47, 307, 1995), using human recombinant receptors expressed in HEK-293 cells, and [^3H]CGS 21680 as radioligand.

| compound | target-system | Ki |
| --- | --- | --- |
| Cn1c(C#Cc2ccccc2)nc2c(C(F)(F)F)nc(NCCc3ccccc3)nc21 [Compound 23] | human adenosine-A2A receptors (Homo sapiens) | > 10 µM |

Query :: Value lookup for Ki; key = CC(C)(C)OC(=O)OCn1cnc2c(C(F)(F)F)nc(NCc3ccccc3)nc21 [Compound 29]
Result :: 20 µM

Query :: Given the compound OC[C@H]1O[C@@H](n2cnc3c(C(F)(F)F)nc(N4CCC(O)CC4)nc32)[C@H](O)[C@@H]1O [Compound 4] , what is its reported Ki?
Result :: > 10 µM

Query :: Looking for the measured Ki of FC(F)(F)c1nc(NCc2ccccc2)nc2nc[nH]c12 [Compound 6, 6-trifluoromethyl-2-benzylamino purine] , can you help?
Result :: 20 µM

Query :: # Ki lookup, item FC(F)(F)c1nc(NCCc2ccccc2)nc2nc[nH]c12 [Compound 9]
Result :: 12.6 µM

Query :: Please look up its Ki: Cn1c(NC2CCCC2)nc2c(C(F)(F)F)nc(NCCc3ccccc3)nc21 [Compound 18]
Result :: 1.26 µM

Query :: Could you tell me which Ki is on file for Cn1c(-c2ccco2)nc2c(C(F)(F)F)nc(NCCc3ccccc3)nc21 [Compound 13] ?
Result :: 7.94 µM

Query :: Item Cn1c(-c2ccccc2)nc2c(C(F)(F)F)nc(NCCc3ccccc3)nc21 [Compound 19] has what recorded Ki?
Result :: 7.94 µM

* * *

target: human adenosine-A2B receptors (Homo sapiens, UniProt P29275); construct: expressed in transfected cells; host or cells: HEK-293 cells; experiment: In vitro affinity for human adenosine-A2B receptors (radioligand [3H]MRS 1754); assay type: binding; conditions: human recombinant receptors expressed in HEK-293 cells, read-out: Adenosine receptor affinity (binding) A2B pKi (converted)
Sequence (P29275 whole entry): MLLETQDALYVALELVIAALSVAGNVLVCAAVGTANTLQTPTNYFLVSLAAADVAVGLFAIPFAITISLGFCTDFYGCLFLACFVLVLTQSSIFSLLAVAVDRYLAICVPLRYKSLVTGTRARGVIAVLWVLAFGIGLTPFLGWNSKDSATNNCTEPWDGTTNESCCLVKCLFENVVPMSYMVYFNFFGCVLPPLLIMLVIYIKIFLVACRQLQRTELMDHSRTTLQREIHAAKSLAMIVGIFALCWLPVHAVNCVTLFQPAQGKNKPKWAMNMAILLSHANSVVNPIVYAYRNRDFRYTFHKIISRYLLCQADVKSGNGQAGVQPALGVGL
quantity-measured: Ki

Here's what some known entries look like.
| smiles-string | observed |
| --- | --- |
| FC(F)(F)c1nc(NCCc2ccccc2)nc2nc[nH]c12 | > 10 µM |
| OC[C@H]1O[C@@H](n2cnc3c(C(F)(F)F)nc(NCc4ccccc4)nc32)[C@H](O)[C@@H]1O | > 10 µM |
| Cn1cnc2c(C(F)(F)F)nc(NCCc3ccccc3)nc21 | 12.6 µM |
| Cn1cnc2c(C(F)(F)F)nc(NCc3ccccc3)nc21 | > 10 µM |

Query :: Using the record for FC(F)(F)c1nc(NCc2ccccc2)nc2nc[nH]c12 , report its Ki.
Result :: > 10 µM

* * *

Here, each record is paired with measured Ki data.
target: human adenosine-A1 receptors (Homo sapiens); construct: expressed in transfected cells; host or cells: CHO cells; test: In vitro affinity for human adenosine-A1 receptors (radioligand [3H]DPCPX); assay type: binding; conditions: human recombinant receptors expressed in CHO cells, read-out: Adenosine receptor affinity (binding) A1 pKi (converted)
All answers are understood in µM, so give the number only.

| smiles-string | quantity-unit | Ki |
| --- | --- | --- |
| Cn1c(-c2cccs2)nc2c(C(F)(F)F)nc(NCCc3ccccc3)nc21 | µM | 6.31 |

Query :: Which measured Ki belongs to FC(F)(F)c1nc(NCCc2ccccc2)nc2nc[nH]c12 , tested on human adenosine-A1 receptors (Homo sapiens)?
Result :: 1

Query :: GET /values?readout=Ki&system=human adenosine-A1 receptors (Homo sapiens)&item= Cn1cnc2c(C(F)(F)F)nc(NCCc3ccccc3)nc21
Result :: 6.31

* * *

target: human Adenosine A3 receptor (Homo sapiens, UniProt P0DMS8); assay: In vitro functional activity on human adenosine A3 receptors using an Aequorin-based assay; type: cell-based; set-up: A. et al. (Acc. Number GenBank: L22607); host or cells: CHO-K1 cells stably expressing mitochondrially targeted aequorin and Galpha16; details: hA3-Aequorin CHO-K1 cells, antagonist mode, N6-benzyl-NECA as the agonist; read-out: Functional activity A3 antagonism pA2 (converted)
Sequence (P0DMS8 whole entry): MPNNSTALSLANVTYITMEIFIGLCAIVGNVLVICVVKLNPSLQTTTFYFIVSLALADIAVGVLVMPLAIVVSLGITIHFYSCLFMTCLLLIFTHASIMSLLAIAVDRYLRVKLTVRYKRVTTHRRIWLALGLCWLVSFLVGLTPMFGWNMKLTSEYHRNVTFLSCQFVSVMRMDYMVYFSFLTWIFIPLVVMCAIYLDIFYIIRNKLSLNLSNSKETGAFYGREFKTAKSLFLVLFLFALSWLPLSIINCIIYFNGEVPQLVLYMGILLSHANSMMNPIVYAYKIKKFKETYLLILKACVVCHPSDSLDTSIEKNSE
quantity-measured: Kb (µM)
Output spec: scalar in µM, unitless text.

| molecule | target-system | quantity-unit | Kb |
| --- | --- | --- | --- |
| Cn1c(I)nc2c(C(F)(F)F)nc(NCCc3ccccc3)nc21 [Compound 12] | human Adenosine A3 receptor (Homo sapiens, UniProt P0DMS8) | µM | 2 |
| OC[C@H]1O[C@@H](n2cnc3c(C(F)(F)F)nc(N4CCC(O)CC4)nc32)[C@H](O)[C@@H]1O [Compound 4] | human Adenosine A3 receptor (Homo sapiens, UniProt P0DMS8) | µM | 0.2 |
| OC[C@H]1O[C@@H](n2cnc3c(C(F)(F)F)nc(NCc4ccccc4)nc32)[C@H](O)[C@@H]1O [Compound 8] | human Adenosine A3 receptor (Homo sapiens, UniProt P0DMS8) | µM | 0.0398 |
| Cn1c(-c2ccco2)nc2c(C(F)(F)F)nc(NCCc3ccccc3)nc21 [Compound 13] | human Adenosine A3 receptor (Homo sapiens, UniProt P0DMS8) | µM | 0.158 |
| Cn1c(/C=C\c2ccccc2)nc2c(C(F)(F)F)nc(NCCc3ccccc3)nc21 [Compound 22] | human Adenosine A3 receptor (Homo sapiens, UniProt P0DMS8) | µM | 1 |
| FC(F)(F)c1nc(NCc2ccccc2)nc2nc[nH]c12 [Compound 6, 6-trifluoromethyl-2-benzylamino purine] | human Adenosine A3 receptor (Homo sapiens, UniProt P0DMS8) | µM | 0.158 |

Lab note: next molecule to report on.
Query :: Item under review: Cn1c(-c2cccs2)nc2c(C(F)(F)F)nc(NCCc3ccccc3)nc21 [Compound 14] . Reported Kb?
Result :: 1.58
